Source listed as PubChem BioAssay AID1250.

# System: BSR cells, Bluetongue virus CPE, ATP luminescence, 72 h
# protocol-text: inhibitors of Bluetongue virus cytopathic effect, confirmation, arbovirus, BSR cells (AID 1250)
pIC50: −log10 of the molar value.
Assign 1 whenever pIC50 does not fall below 5; assign 0 whenever it does.

CC(C)(C)c1ccc(C(=O)Nc2sc3c(c2C(=O)O)CCC3)cc1	1

With those in mind, consider the next compound.
Given the entry CCOc1ccc(C(=O)Nc2cc(NC(=O)c3ccc(OCC)c(Cl)c3)cc(C(=O)O)c2)cc1Cl , answer whether its pIC50 meets or surpasses 5. 0

----------
# protocol-text: inhibitors of Bluetongue virus cytopathic effect, confirmation, arbovirus, BSR cells (AID 1250)
# condition-context: BSR cells, Bluetongue virus CPE, ATP luminescence, 72 h; at 20 µM (top of the series)
Class key for CPE inhibition values: range 1 = under 10%, range 2 = from 10% up to 20%, range 3 = 20% and over

Consider the worked cases shown below.
COc1ccc2nc(N3C(=O)CC(Cc4cc(C)cc(C)c4)C3=O)sc2c1 (stereo unspecified)	range 2
O=S(=O)(c1ccc(Oc2ccc(Cl)cc2)c(S(=O)(=O)N2CCCCC2)c1)N1CCCCC1	range 3
O=C(O)C(Cc1ccccc1)N=Cc1c(O)c2ccccc2oc1=O (stereo unspecified)	range 1
Cc1cccc2c1nc(-c1ccccc1)n1nnnc21	range 1
CCc1nnc(NS(=O)(=O)c2ccc(NC(=O)COc3ccc4ccccc4c3)cc2)s1	range 3
COc1ccc2c(C)cc(Sc3nnnn3-c3ccccc3)nc2c1	range 3

Consider CC(=O)Nc1ccc(SCC(=O)N(CCC#N)c2cc(C)cc(C)c2)cc1 . To which CPE inhibition class does it belong? range 2

Consider O=C(CSCC(=O)N1CCCCC1)OCC(=O)c1c[nH]c2ccccc12 . To which CPE inhibition class does it belong? range 1

----------
In this section we review reported CPE inhibition values for a set of compounds.
# protocol-text: inhibitors of Bluetongue virus cytopathic effect, confirmation, arbovirus, BSR cells (AID 1250)
# condition-context: BSR cells, Bluetongue virus CPE, ATP luminescence, 72 h; at 20 µM (top of the series)
The source made the active and inactive calls.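 How the source made its calls: active means inhibition of at least 30% at one or more tested concentrations; inactive means inhibition below 30% at every dose.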

Solved entries (count: 5):
C/C(=N\NC(=O)c1c(Cl)c(C)nn1C)c1ccc(NC(=O)c2ccncc2)cc1	17.7% (inactive)
CCCN(CCC)C(=O)CSc1nc2c(sc(=S)n2-c2ccc(OCC)cc2)c(=O)[nH]1	28.7% (inactive)
CN(Cc1ccccc1)c1nc(N)c([N+](=O)[O-])c(NCc2ccccc2)n1	-7.95% (inactive)
Cc1nn(C)cc1CN(C)Cc1ccc(OCC(O)CN2CCCCC2)cc1 (stereo not given)	11.1% (inactive)
COc1ccc(Cl)cc1NC(=O)C1COc2ccccc2O1 (stereo not given)	26.3% (inactive)

Given the entry Fc1ccc(Br)cc1C1C=C(c2ccc(Br)cc2)Nc2ncnn21 (stereo not given) , report its measured CPE inhibition. 2.77% (inactive)

Given the entry O=c1/c(=C/c2ccc(O)c([N+](=O)[O-])c2)sc2nc3ccccc3n12 , report its measured CPE inhibition. 12.4% (inactive)

----------
# System: BSR cells, Bluetongue virus CPE, ATP luminescence, 72 h
# protocol-text: inhibitors of Bluetongue virus cytopathic effect, confirmation, arbovirus, BSR cells (AID 1250)
In this section we review reported IC50 values for a set of compounds.

CC(C)Cc1csc(NC(=O)c2ccccc2Cl)c1C(=O)O	20.6 µM

Given the entry C(=N\Nc1nc(-c2ccccc2)cs1)/c1cccs1 , report its measured IC50. 15.5 µM

Given the entry O=c1oc(/C=C/c2ccccc2)nc2sc3c(c12)CCC3 , report its measured IC50. 8.92 µM

Given the entry O=c1[nH]n2c(=O)c3c([nH]c2c1N=Nc1cccc(C(F)(F)F)c1)CCCC3 , report its measured IC50. 19.5 µM

Given the entry CC(=O)OC[C@H]1O[C@@H](n2ncc(=O)[nH]c2=O)[C@H](OC(C)=O)[C@@H]1OC(C)=O , report its measured IC50. 9.79 µM

Given the entry CCc1nn2c(N)c(/C=C3\C=Nc4ccccc43)c(=O)nc2s1 , report its measured IC50. 18.3 µM

----------
# protocol-text: inhibitors of Bluetongue virus cytopathic effect, confirmation, arbovirus, BSR cells (AID 1250)
# condition-context: BSR cells, Bluetongue virus CPE, ATP luminescence, 72 h; at 20 µM (top of the series)
Assign rule met whenever CPE inhibition does not fall below 10%; assign rule not met whenever it does.

Cc1ccc(NC(=O)c2cncc(Br)c2)c(O)c1	rule met
CCOC(=O)c1sc(NC(=S)NC(=O)c2cccc(Cl)c2)c(C(=O)OCC)c1C	rule not met
Cc1cccc(S(=O)(=O)Nc2nc3ccccc3nc2NCc2ccco2)c1	rule met

Given the entry N#Cc1c(-c2ccco2)nc(SCC(=O)Nc2ccc(S(N)(=O)=O)cc2)[nH]c1=O , answer whether its CPE inhibition meets or surpasses 10%. rule not met

Given the entry O=C(NC1=NCCS1)c1ccc(Cl)c(S(=O)(=O)N2CCCC2)c1 , answer whether its CPE inhibition meets or surpasses 10%. rule met

Given the entry O=Cc1ccc(OCc2ccccn2)cc1 , answer whether its CPE inhibition meets or surpasses 10%. rule not met

Given the entry Cc1c(Cl)cccc1NC(=O)c1cc(-c2ccccc2O)n[nH]1 , answer whether its CPE inhibition meets or surpasses 10%. rule met

Given the entry O=C(Nc1cccc(NC(=O)c2cccs2)c1)c1ccco1 , answer whether its CPE inhibition meets or surpasses 10%. rule met

Given the entry Cc1ccccc1N=C1SCC(=O)N1Cc1ccccc1 , answer whether its CPE inhibition meets or surpasses 10%. rule not met

----------
In this section we review reported CPE inhibition values for a set of molecules.
# protocol-text: inhibitors of Bluetongue virus cytopathic effect, confirmation, arbovirus, BSR cells (AID 1250)
# condition-context: BSR cells, Bluetongue virus CPE, ATP luminescence, 72 h; at 20 µM (top of the series)
Write the answer as a number in %, unit excluded.

Solved entries (count: 4):
CN(C)C(=O)COC(=O)c1ccccc1Nc1ccc(SC(F)F)cc1	23
CSC1=NSC2=NC(=O)/C(=C\c3cccs3)C(=N)N12	16
CCOC(=O)C1(CCCc2ccccc2)CCN(C2CCSCC2)CC1	11.3
Oc1ccc(Br)cc1-c1nc2cnccn2c1NC1CCCC1	16.6

Given the entry O=C(O)c1ccccc1Nc1ccc([N+](=O)[O-])cc1 , report its measured CPE inhibition. 24.6

Given the entry Cn1c(Oc2ccccc2NCc2cc(Br)ccc2O)cc(=O)n(C)c1=O , report its measured CPE inhibition. 14.3

----------
# protocol-text: inhibitors of Bluetongue virus cytopathic effect, confirmation, arbovirus, BSR cells (AID 1250)
# condition-context: BSR cells, Bluetongue virus CPE, ATP luminescence, 72 h; at 20 µM (top of the series)
In this section we review reported CPE inhibition values for a set of compounds.
Write the answer as a number in %, unit excluded.

Solved entries (count: 3):
O=C(NNC(=O)c1cccs1)c1ccc([N+](=O)[O-])cc1	4.62
Fc1ccccc1COc1ccc2ccccc2c1CNc1nn[nH]n1	11.5
O=C(CSc1ncn(-c2ccccc2)n1)Nc1nc2ccccc2s1	10.5

Given the entry COc1ccccc1C(=O)NCC1CCN(c2ccc(S(=O)(=O)N3CCOCC3)cc2)CC1 , report its measured CPE inhibition. 6.04

Given the entry CCc1nn2cc(C(=O)c3ccccc3O)cnc2c1-c1ccc(F)cc1 , report its measured CPE inhibition. 14.2

Given the entry N=C1/C(=C/c2cccs2)C(=O)N=C2SN=C(SCc3ccccc3)N12 , report its measured CPE inhibition. 29.3

----------
# protocol-text: inhibitors of Bluetongue virus cytopathic effect, confirmation, arbovirus, BSR cells (AID 1250)
# condition-context: BSR cells, Bluetongue virus CPE, ATP luminescence, 72 h; at 20 µM (top of the series)
Assign Y whenever CPE inhibition does not fall below 20%; assign N whenever it does.

Consider the worked cases shown below.
Cc1nn(CC(O)Cn2c3c(c4ccccc42)CCN(C)C3=O)c(C)c1Br (stereo not given)	Y
Cc1ccc(O)c(-c2cc(C(=O)Nc3ccc(S(=O)(=O)Nc4nc(C)cc(C)n4)cc3)[nH]n2)c1	Y
N#C/C(=C\c1cn[nH]c1-c1ccc(Cl)cc1)C(=O)NCc1ccccc1	N

Given the entry COc1ccc(C(=O)/C=C/c2ccc(OC)c(Cn3nnc4ccccc43)c2)cc1 , answer whether its CPE inhibition meets or surpasses 20%. N

Given the entry Cc1ccc(C(=O)N/C(=C\c2cccs2)C(=O)NCc2cccnc2)cc1 , answer whether its CPE inhibition meets or surpasses 20%. N

Given the entry Cc1c(C(=O)NC(Cc2ccccc2)c2nc3ccccc3[nH]2)cccc1[N+](=O)[O-] (stereo not given) , answer whether its CPE inhibition meets or surpasses 20%. N

Given the entry Cc1ccc(N2CN=c3s/c(=C\c4ccccn4)c(=O)n3C2)cc1 , answer whether its CPE inhibition meets or surpasses 20%. N

Given the entry COC(=O)C1=C(C)N(Cc2ccco2)C(=O)N[C@@H]1c1cccc(C(F)(F)F)c1 , answer whether its CPE inhibition meets or surpasses 20%. Y

Given the entry O=c1[nH]c(=O)n(C(c2ccccc2)c2ccccc2)cc1Br , answer whether its CPE inhibition meets or surpasses 20%. N

Given the entry COc1ccc(Cn2c(C)c(C)c(C#N)c2NC(=O)Nc2cccc(Cl)c2)cc1 , answer whether its CPE inhibition meets or surpasses 20%. N
